# Tested on: normal rat cardiomyocyte H9c2 cells
# Assay summary: Cell viability assay (MTT), cytotoxic activity
# Type: cell-based
# Run parameters: 24 h, MTT; read-out: H9c2 IC50 (cytotoxic effect)
pIC50: −log10 of the molar value.
The molecules listed here are annotated with their pIC50.
Assay endpoint: pIC50

> print(dat)
                                   molecule  comparison.operator  number
1        Cc1cc(O)cc2oc3cc(O)cc(O)c3c(=O)c12                    =    4.01
2  Cc1cc(O)c(O)c2oc3cc(O)cc(O)c3c(=O)c12 [Compound 7, 1,3,5,6-tetrahydroxy-8-methylxanthone]                    <    4.00

* * *

Measured IC50 (urease from Canavalia ensiformis (Canavalia ensiformis))
Assay endpoint: IC50 (µM)

> print(dat)
                                   compound                                    target  assay.endpoint  comparison.operator  number
1  Cc1cc(O)c(O)c2oc3cc(O)cc(O)c3c(=O)c12 [Compound 7, 1,3,5,6-tetrahydroxy-8-methylxanthone]  urease from Canavalia ensiformis (Canavalia ensiformis)            IC50                    =     100
2        Cc1cc(O)cc2oc(C[C@H](C)O)cc(=O)c12  urease from Canavalia ensiformis (Canavalia ensiformis)            IC50                    >     100
3  COC1=CC(=O)C[C@@H](C)[C@]12Oc1c(Cl)c(OC)cc(OC)c1C2=O [Compound 8, griseofulvin, reference compound]  urease from Canavalia ensiformis (Canavalia ensiformis)            IC50                    =    10.1
4                 Cc1cc(=O)c2c(C)cc(O)cc2o1  urease from Canavalia ensiformis (Canavalia ensiformis)            IC50                    >     100

* * *

Entries and their measured viability at 24 h, 100 µM follow.
# Assay summary: Cell viability assay (MTT), cytotoxic activity
# Format: cell-based, human
# Run parameters: human, HepG2 hepatocarcinoma cells; 100 µM, 24 h, MTT, percent of control
# Protocol: The HepG2 and H9c2 cells were cultured in DMEM medium (Biolot, St. Petersburg, Russia) containing 10% fetal bovine serum (Biolot, St. Petersburg, Russia) and 1% penicillin/streptomycin (Biolot, St. Petersburg, Russia) at 37 °C in a humidified atmosphere with 5% (v/v) CO2. The HepG2 and H9c2 cells were seeded at concentrations of 5× 10^3 and 3×10^3 cell/well, respectively, and the experiments were started after 24 h. […] The results are presented as a percent of the control data and calculated IC50.
Assay endpoint: viability at 24 h, 100 µM (%)

> print(dat)
                                   compound  number
1                 Cc1cc(=O)c2c(C)cc(O)cc2o1    92.6
2        Cc1cc(O)cc2oc(C[C@H](C)O)cc(=O)c12     101
3  Cc1cc(O)c(O)c2oc3cc(O)cc(O)c3c(=O)c12 [Compound 7, 1,3,5,6-tetrahydroxy-8-methylxanthone]    57.4
4  COC1=CC(=O)c2c(O)cc(O)cc2[C@@]1(C)O [Compound 1, sajaroketide A]     107
5        Cc1cc(O)cc2oc3cc(O)cc(O)c3c(=O)c12    52.6
